tested on: Escherichia coli (including ESBLs, non-ESBLs); test: MIC, two-fold agar dilution (CLSI), clinical isolates; assay type: cell-based; conditions: clinical isolate ECO+ 15-4
Measured property: Anti-bacterial activity (MIC), strain ECO+ 15-4 (µg/mL)

>  <Structure string>
O=C(C[C@@H](CC1CCCC1)C(=O)N1CC2(CC2)C[C@H]1C(=O)Nc1nc(C(F)(F)F)cs1)NO

>  <Unit>
µg/mL

>  <Value operator>
=

>  <Endpoint result>
32

$$$$
>  <Structure string>
CCCC[C@H](CC(=O)NO)C(=O)N1CC2(CCCC2)C[C@H]1C(=O)Nc1cnccn1

>  <Unit>
µg/mL

>  <Value operator>
>

>  <Endpoint result>
32

$$$$
>  <Structure string>
CCCC[C@H](CC(=O)NO)C(=O)N1CC2(CC2)C[C@H]1C(=O)Nc1ncccc1F

>  <Unit>
µg/mL

>  <Value operator>
>

>  <Endpoint result>
32

$$$$
>  <Structure string>
CCCC[C@H](CC(=O)NO)C(=O)N1CC2(CC2)C[C@H]1C(=O)Nc1ccncn1

>  <Unit>
µg/mL

>  <Value operator>
=

>  <Endpoint result>
1

$$$$

// data source = patent US10738028B2
